Tested on: TPO induced STAT3 phosphorylation
Measurement protocol: Human whole blood p-STAT3 assay, TPO stimulation
Format: cell-based
Condition set: 0.25 h, TPO 50 ng/ml 15 min, pSTAT3 ELISA, read-out: TPO (range of IC50, induced STAT3 phosphorylation)
pIC50: −log10 of the molar value.
Assay metric: pIC50

Answered examples (3):
{"Smiles": "C[C@@H](O)c1nc2cnc3ccoc3c2n1[C@H]1CC[C@H](CC#N)OC1", "Tested on": "TPO induced STAT3 phosphorylation", "pIC50": "< 4.00"}
{"Smiles": "C[C@@H](O)c1nc2cnc3ccoc3c2n1[C@H]1CC[C@H](CC#N)CC1", "Tested on": "TPO induced STAT3 phosphorylation", "pIC50": "< 4.00"}
{"Smiles": "N#CC[C@H]1CC[C@H](n2c(CO)nc3cnc4ccoc4c32)CO1", "Tested on": "TPO induced STAT3 phosphorylation", "pIC50": "< 4.00"}

Kindly review the next compound as well.
Reported pIC50 for TPO induced STAT3 phosphorylation, given `Cc1nc2cnc3ccoc3c2n1[C@H]1CC[C@H](CC#N)OC1` ?
4.00 to 4.70
